experimentalTarget: Adenosine receptor A3 (Homo sapiens)
Sequence (P0DMS8 whole entry): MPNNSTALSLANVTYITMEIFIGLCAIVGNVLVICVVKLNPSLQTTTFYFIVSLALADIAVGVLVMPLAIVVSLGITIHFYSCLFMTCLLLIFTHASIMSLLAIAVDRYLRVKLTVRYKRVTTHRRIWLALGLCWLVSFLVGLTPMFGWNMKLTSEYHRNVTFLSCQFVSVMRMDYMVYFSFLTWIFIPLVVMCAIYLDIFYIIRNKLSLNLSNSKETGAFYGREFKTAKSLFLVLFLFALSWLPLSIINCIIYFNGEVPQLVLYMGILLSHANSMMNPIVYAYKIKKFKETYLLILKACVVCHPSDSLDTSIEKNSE
measuredParameter: Ki (nM)

# molecule, value
measured = [
    ("COP(=O)(OC)OC[C@H]1O[C@@H](n2cnc3c(NC4CCCC4)nc(Cl)nc32)[C@H](O)[C@@H]1O", 450),
]
